experiment: NCI Yeast Anticancer Drug Screen. Data for the wt1 strain (AID 149);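 note: 0% = growth of vehicle-treated wt1 cultures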
setup_conditions: S. cerevisiae wt1 strain (SPY 50644) growth inhibition; at 3.7 µM; stronger effect = higher value
About 79,000 compounds went through this panel and 15% of them were active in at least one assay; those are over-represented in the sample as a whole.
measurement_name: growth inhibition (%)

>>> measured("c1c(N2CCOCC2)ssc1=[N+]1CCOCC1")
-1
>>> measured("CC[C@](O)(C(=O)O)c1cc2n(c(=O)c1CO)Cc1cc3ccccc3nc1-2")
10
>>> measured("NC1=NCC(c2ccc(Cl)cc2)O1 (stereo not given)")
-4
>>> measured("O=P(CCCCP(=O)(c1ccccc1)c1ccccc1)(c1ccccc1)c1ccccc1.[Cl][Sn]([Cl])([c]1ccccc1)[c]1ccccc1")
3
>>> measured("C[N+]1(CCCl)CC[N+](C)(CCCl)CC1 (stereo not given)")
-1
>>> measured("c1ccc(N=c2nc(N3CCOCC3)ss2)cc1")
4
>>> measured("COC1CC(CC2CCC(C)C(C(C)C(=O)O)O2)OC2(OC(C)(C3CCC(C)(C4OC(C5OC(O)(CO)C(C)CC5C)CC4C)O3)CC2C)C1C (stereo not given)")
-9
>>> measured("CCC1(O)C(=O)OCc2c1cc1n(c2=O)Cc2c-1nc1ccccc1c2OC (stereo not given)")
12
>>> measured("CC1CC(C)CC(C)C(O)/C(C#N)=C/C=C/CC(C2CCCC2C(=O)O)OC(=O)CC(O)C(C)C1 (stereo not given)")
99
>>> measured("CCN(CC)CCBr")
1

Values from PubChem BioAssay (NCI)
